# runDescription: UKN2_HCS_IMR90_neural_migration: University of Konstanz (UKN) Leist Lab Neural Crest Cell Migration Assay in human induced IMR90 Pluripotent Stem Cells (UKN2) (AID 2284204)
# conditionDescription: actives raise or lower the signal
Calls of active or inactive are those of the source. Rule for the calls: active = hit-call score of the fitted dose curve at least 0.9, where 1 is the maximum; inactive = score below 0.9.
Choose one outcome from this list and give only that: active, inactive

These solved cases illustrate the format of a correct answer.
Per the records of this test, what outcome belongs to CS(=O)(=O)c1cc(C(F)(F)F)ccc1C(=O)c1cnoc1C1CC1 ? inactive

Per the records of this test, what outcome belongs to CS(=O)(=O)c1ccc(C(=O)C2C(=O)CCCC2=O)c([N+](=O)[O-])c1 ? inactive

Per the records of this test, what outcome belongs to Cc1c(COC(=O)[C@@H]2[C@H](/C=C(\Cl)C(F)(F)F)C2(C)C)cccc1-c1ccccc1 ? inactive

---
Per the records of this test, what outcome belongs to COC(=O)N(C(=O)N1CO[C@@]2(C(=O)OC)Cc3cc(Cl)ccc3C2=N1)c1ccc(OC(F)(F)F)cc1 ? inactive

Per the records of this test, what outcome belongs to CO/N=C(/C1=NOCCO1)c1ccccc1Oc1ncnc(Oc2ccccc2Cl)c1F ? inactive

Per the records of this test, what outcome belongs to CC(C)(C)C(=O)C(Oc1ccc(Cl)cc1)n1cncn1 (configuration not stated) ? inactive

Per the records of this test, what outcome belongs to COP(=S)(OC)SCn1nnc2ccccc2c1=O ? active
